molecular target: T1, human CD28 (human, UniProt P10747 19-220, On cells CD28 is a disulfide linked homodimer and a glycoprotein; one copy of the chain is given.); assay: flow cytometry, PE-conjugated antibody on 4% PFA-fixed human peripheral blood cells
T1 construct: also called T-cell specific surface glycoprotein CD28
T1 sequence (P10747 19-220 limits assumed): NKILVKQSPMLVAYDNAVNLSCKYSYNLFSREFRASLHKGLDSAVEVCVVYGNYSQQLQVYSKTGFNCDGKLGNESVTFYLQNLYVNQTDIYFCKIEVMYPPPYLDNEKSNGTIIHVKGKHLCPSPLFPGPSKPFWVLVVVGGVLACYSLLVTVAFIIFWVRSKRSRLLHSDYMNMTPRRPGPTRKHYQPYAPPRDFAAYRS
Quantity: S/N on fixed cells
Reply: number alone, nothing else.

exemplary anti-CD28 antibody AB3 (antibody, V domains shown, Mouse hybridoma monoclonal antibody; Conjugated to PE in the staining assays; also called antibody 3; clone 3) VH: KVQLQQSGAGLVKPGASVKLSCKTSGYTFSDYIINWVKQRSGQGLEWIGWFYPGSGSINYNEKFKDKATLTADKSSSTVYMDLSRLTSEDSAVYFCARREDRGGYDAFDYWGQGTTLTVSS VL: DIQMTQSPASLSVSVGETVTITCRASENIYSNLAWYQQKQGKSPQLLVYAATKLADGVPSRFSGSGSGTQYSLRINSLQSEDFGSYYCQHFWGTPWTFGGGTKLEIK	101

From here, focus on the item given below.
Memo: exemplary anti-CD28 antibody AB4 (antibody, V domains shown, Mouse hybridoma monoclonal antibody; Conjugated to PE in the staining assays; also called antibody 4; clone 4) VH: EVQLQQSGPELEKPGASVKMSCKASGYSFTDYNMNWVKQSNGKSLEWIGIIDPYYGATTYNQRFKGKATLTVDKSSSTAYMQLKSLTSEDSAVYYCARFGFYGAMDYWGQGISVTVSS VL: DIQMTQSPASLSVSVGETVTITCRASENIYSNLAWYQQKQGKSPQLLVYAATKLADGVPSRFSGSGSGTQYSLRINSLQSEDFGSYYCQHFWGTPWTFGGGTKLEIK , reported S/N on fixed cells: 57.7

The values you see were collected from patent US20250052767A1.
